Target: SIN3A Paired amphipathic helix protein Sin3a (Homo sapiens, UniProt Q96ST3)
Construct: isoTOP-ABPP experiments performed in cell lysates (in vitro); endogenous in cells; host or cells: soluble proteome of human cancer cell lines (MDA-MB-231; Ramos and Jurkat also prepared)
Sequence (Q96ST3 whole entry): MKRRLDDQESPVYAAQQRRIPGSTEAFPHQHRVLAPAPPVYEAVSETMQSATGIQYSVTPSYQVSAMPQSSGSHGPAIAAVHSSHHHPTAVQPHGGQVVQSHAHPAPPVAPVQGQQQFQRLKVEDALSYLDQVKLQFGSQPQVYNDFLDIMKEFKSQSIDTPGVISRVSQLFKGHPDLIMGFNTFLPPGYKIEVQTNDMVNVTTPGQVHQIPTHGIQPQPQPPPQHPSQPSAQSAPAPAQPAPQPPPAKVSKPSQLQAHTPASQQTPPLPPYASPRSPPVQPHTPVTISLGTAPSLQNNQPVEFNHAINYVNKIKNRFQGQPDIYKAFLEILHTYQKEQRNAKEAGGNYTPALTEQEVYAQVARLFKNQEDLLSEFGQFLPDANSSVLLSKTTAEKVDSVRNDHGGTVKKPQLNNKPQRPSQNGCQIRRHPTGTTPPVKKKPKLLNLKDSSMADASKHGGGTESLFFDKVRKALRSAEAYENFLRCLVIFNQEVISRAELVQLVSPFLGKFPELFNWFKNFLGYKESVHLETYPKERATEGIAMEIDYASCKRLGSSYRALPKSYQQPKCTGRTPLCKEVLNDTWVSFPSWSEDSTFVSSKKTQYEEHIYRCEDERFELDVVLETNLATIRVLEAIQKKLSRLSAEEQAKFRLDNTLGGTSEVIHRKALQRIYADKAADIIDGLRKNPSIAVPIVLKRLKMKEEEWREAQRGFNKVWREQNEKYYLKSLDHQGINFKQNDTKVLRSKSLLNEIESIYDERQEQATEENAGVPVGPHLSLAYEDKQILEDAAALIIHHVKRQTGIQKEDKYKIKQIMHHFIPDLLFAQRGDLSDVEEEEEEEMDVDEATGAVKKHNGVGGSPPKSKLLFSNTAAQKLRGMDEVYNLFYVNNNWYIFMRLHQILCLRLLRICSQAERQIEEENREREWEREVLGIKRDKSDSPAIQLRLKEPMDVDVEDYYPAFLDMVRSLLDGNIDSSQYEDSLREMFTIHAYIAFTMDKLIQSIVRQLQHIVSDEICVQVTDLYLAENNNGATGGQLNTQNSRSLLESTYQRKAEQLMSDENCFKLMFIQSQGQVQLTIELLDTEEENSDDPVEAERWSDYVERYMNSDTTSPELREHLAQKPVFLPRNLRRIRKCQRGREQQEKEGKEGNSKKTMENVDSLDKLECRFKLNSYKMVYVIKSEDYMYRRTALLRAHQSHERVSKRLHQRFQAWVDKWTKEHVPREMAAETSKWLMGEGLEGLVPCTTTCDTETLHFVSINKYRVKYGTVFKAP
Assay: competitive isoTOP-ABPP
Format: binding
Details: 50 uM, in vitro, sol, 231
Description: In vitro covalent fragment treatment for isoTOP-ABPP. All compounds were made up as solutions in DMSO (100×) and were used at a final concentration of 50 μM for activated esters and 100 μM for guanidinylating agents. […] R value calculation and processing. The ratios of light and heavy MS1 peaks for each unique peptide were quantified with a CIMAGE software using default parameters (3 MS1 acquisitions per peak and signal to noise threshold set to 2.5). […]
observed-property: isoTOP-ABPP ratio (R) at liganded lysine Q96ST3_K155

O=C(CC12CC3CC(CC(C3)C1)C2)Oc1ccc([N+](=O)[O-])cc1[N+](=O)[O-] : 1.2

Find the measured isoTOP-ABPP ratio (R) at liganded lysine Q96ST3_K155 of O=C(Oc1ccc([N+](=O)[O-])cc1[N+](=O)[O-])c1ccc2ccccc2n1 and report it.
1.6

Find the measured isoTOP-ABPP ratio (R) at liganded lysine Q96ST3_K155 of CC(C)(C)OC(=O)NCCCC(=O)Oc1ccc([N+](=O)[O-])cc1[N+](=O)[O-] and report it.
1.3

These entries and their values trace back to patent US20210255193A1.
